System: A549
Experiment: Cytotoxicity against human A549 cells after 48 hrs by SRB assay
Type: functional, cell-based
Details: Homo sapiens, A549, 48 h
Item-by-item account of LC50

moleculeSmiles	LC50 [µM]
C/C=C1\NC(=O)[C@H](Cc2ccc(F)cc2)NC(=O)[C@@H](C(C)C)NC(=O)[C@@H]([C@H](C)CC)NC(=O)[C@H](NC(=O)[C@H](NC(=O)[C@H](CCCN)NC(=O)[C@H]2CCCN2C(=O)[C@H](NC(=O)[C@@H](NC(=O)[C@@H](NC(=O)[C@H](NC(=O)CC[C@@H](C)CC)C(C)C)[C@@H](C)O)C(C)C)C(C)C)[C@H](C)CC)[C@H](C)OC(=O)[C@H](C(C)C)NC1=O	1.04
CC[C@@H](C)[C@@H](NC(=O)[C@H](CCCN)NC(=O)[C@H]1CCCN1C(=O)[C@H](NC(=O)[C@@H](NC(=O)[C@@H](NC(=O)[C@H](NC(=O)CCCC(C)C)C(C)C)[C@@H](C)O)C(C)C)C(C)C)C(=O)N[C@H]1C(=O)N[C@H]([C@H](C)CC)C(=O)N[C@H](C(C)C)C(=O)N[C@@H](Cc2ccccc2)C(=O)N[C@H](CC)C(=O)N[C@@H](C(C)C)C(=O)O[C@H]1C	1.83
C/C=C1\NC(=O)[C@H](Cc2ccc(OC)cc2)NC(=O)[C@@H](C(C)C)NC(=O)[C@@H]([C@H](C)CC)NC(=O)[C@H](NC(=O)[C@H](NC(=O)[C@H](CCCN)NC(=O)[C@H]2CCCN2C(=O)[C@H](NC(=O)[C@@H](NC(=O)[C@@H](NC(=O)[C@H](NC(=O)CC[C@@H](C)CC)C(C)C)[C@@H](C)O)C(C)C)C(C)C)[C@H](C)CC)[C@H](C)OC(=O)[C@H](C(C)C)NC1=O	6.42
C/C=C1\NC(=O)[C@H](Cc2ccccc2)NC(=O)[C@@H](C(C)C)NC(=O)[C@@H]([C@H](C)CC)NC(=O)[C@H](NC(=O)[C@H](NC(=O)[C@H](CCCN)NC(=O)[C@H]2CCCN2C(=O)[C@H](NC(=O)[C@H](CCC(=O)O)NC(=O)[C@@H](NC(=O)[C@H](NC(=O)CCCC(C)C)C(C)C)[C@@H](C)O)C(C)C)[C@H](C)CC)[C@H](C)OC(=O)[C@H](C(C)C)NC1=O	1.79
C/C=C1\NC(=O)[C@H](Cc2ccccc2)NC(=O)[C@@H](C(C)C)NC(=O)[C@@H]([C@H](C)CC)NC(=O)[C@H](NC(=O)[C@H](NC(=O)[C@H](CCCNC(=O)CCOCCOCCNC(=O)OCC2c3ccccc3-c3ccccc32)NC(=O)[C@H]2CCCN2C(=O)[C@H](NC(=O)[C@@H](NC(=O)[C@@H](NC(=O)[C@H](NC(=O)CCCC(C)C)C(C)C)[C@@H](C)O)C(C)C)C(C)C)[C@H](C)CC)[C@H](C)OC(=O)[C@H](C(C)C)NC1=O	0.032
C/C=C1\NC(=O)[C@H](Cc2ccccc2)NC(=O)[C@@H](C(C)C)NC(=O)[C@@H]([C@H](C)CC)NC(=O)[C@H](NC(=O)[C@H](NC(=O)[C@H](CCCN)NC(=O)[C@H]2CCCN2C(=O)[C@H](NC(=O)[C@@H](NC(=O)[C@@H](NC(=O)[C@H](NC(=O)CCCCCCCCCCCCCCC)C(C)C)[C@@H](C)O)C(C)C)C(C)C)[C@H](C)CC)[C@H](C)OC(=O)[C@H](C(C)C)NC1=O	0.117
C/C=C1\NC(=O)[C@H](Cc2ccccc2)NC(=O)[C@@H](C(C)C)NC(=O)[C@@H]([C@H](C)CC)NC(=O)[C@H](NC(=O)[C@H](NC(=O)[C@H](CCCN)NC(=O)[C@H]2CCCN2C(=O)[C@H](NC(=O)[C@@H](NC(=O)[C@H](NC(=O)[C@H](NC(=O)CCCC(C)C)C(C)C)[C@@H](C)O)C(C)C)C(C)C)[C@H](C)CC)[C@H](C)OC(=O)[C@H](C(C)C)NC1=O	1.81
C/C=C1\NC(=O)[C@H](Cc2ccccc2)NC(=O)[C@@H](C(C)C)NC(=O)[C@@H]([C@H](C)CC)NC(=O)[C@H](NC(=O)[C@H](NC(=O)[C@H](CCCN)NC(=O)[C@H]2CCCN2C(=O)[C@H](NC(=O)[C@@H](NC(=O)[C@H](CCC(=O)O)NC(=O)[C@H](NC(=O)CCCC(C)C)C(C)C)C(C)C)C(C)C)[C@H](C)CC)[C@H](C)OC(=O)[C@H](C(C)C)NC1=O	7.08
C/C=C1\NC(=O)[C@H](Cc2ccccc2)NC(=O)[C@@H](C(C)C)NC(=O)[C@@H]([C@H](C)CC)NC(=O)[C@H](NC(=O)[C@H](NC(=O)[C@H](CCCN)NC(=O)[C@H]2CCCN2C(=O)[C@H](NC(=O)[C@H](CCC(N)=O)NC(=O)[C@@H](NC(=O)[C@H](NC(=O)CCCC(C)C)C(C)C)[C@@H](C)O)C(C)C)[C@H](C)CC)[C@H](C)OC(=O)[C@H](C(C)C)NC1=O	1.87
C/C=C1\NC(=O)[C@H](Cc2c(F)c(F)c(F)c(F)c2F)NC(=O)[C@@H](C(C)C)NC(=O)[C@@H]([C@H](C)CC)NC(=O)[C@H](NC(=O)[C@H](NC(=O)[C@H](CCCN)NC(=O)[C@H]2CCCN2C(=O)[C@H](NC(=O)[C@@H](NC(=O)[C@@H](NC(=O)[C@H](NC(=O)CC[C@@H](C)CC)C(C)C)[C@@H](C)O)C(C)C)C(C)C)[C@H](C)CC)[C@H](C)OC(=O)[C@H](C(C)C)NC1=O	1.27
